- ASSAY PROTOCOL: RPMI8226 myeloma cell viability, profiling panel, resazurin fluorescence, basal, 24 h, PK04 Diversity Set (AID 1180);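 also: RPMI8826 multiple myeloma cell line at 5000 cells per well; test concentration not given here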
- EXPERIMENTAL SETUP: higher = more signal
The label depends only on z-score: Satisfied if it is at least -1, Not satisfied if it is smaller.

{"MOLECULE": "COc1ccc([Si](C)(C)[C@@H]2[C@@H](CC(=O)N(CCO)Cc3ccccc3)O[C@]3(C(=O)N(Cc4cccc(N5C(=O)c6cccc7cccc5c67)c4)c4ccccc43)[C@H]2C)cc1", "ASSIGNED CLASS": "Not satisfied"}
{"MOLECULE": "C=C[C@@H](OC)[C@H](OC(=O)Nc1ccc(SC)cc1)c1ccc(O)c(F)c1", "ASSIGNED CLASS": "Satisfied"}
{"MOLECULE": "C=CCC(OC(C)=O)[C@@H]1[C@@H](N(Cc2ccc(-c3ccccc3)cc2)C(=O)Cc2ccc(F)cc2)c2cc(OCCCO)ccc2N1C(=O)Cc1ccc(OC)cc1 (some centres not stated)", "ASSIGNED CLASS": "Satisfied"}
{"MOLECULE": "[N-]=[N+]=Nc1ccccc1C[C@]1(C(N)=O)N=C(c2ccc(OCCCO)cc2)O[C@H]1c1ccccc1N=[N+]=[N-]", "ASSIGNED CLASS": "Not satisfied"}
{"MOLECULE": "CCOC(=O)C1=C[C@@H](c2ccccc2)N(S(=O)(=O)c2ccc(C)cc2)[C@H]1c1ccccc1Cl", "ASSIGNED CLASS": "Not satisfied"}

Task item: Hi team, for "COC(=O)[C@@]1(Cc2ccc(OC)cc2)[C@H]2c3cc(C(=O)N(C)C)n(C[C@H](O)CO)c3C[C@H]2CN1C(=O)c1ccccc1" , is the recorded z-score at or above -1?
Reply: Not satisfied

Task item: Hi team, for "CC(C)N1C(=O)C[C@@](C(=O)NCCCN(C)C)(c2ccc([N+](=O)[O-])cc2)[C@H]1c1ccc(CO)cc1" , is the recorded z-score at or above -1?
Reply: Satisfied

----------
- MEASURED TARGET: NADPH oxidase 5 (Homo sapiens) (UniProt Q96PH1)
- Sequence (Q96PH1 whole entry, looked up): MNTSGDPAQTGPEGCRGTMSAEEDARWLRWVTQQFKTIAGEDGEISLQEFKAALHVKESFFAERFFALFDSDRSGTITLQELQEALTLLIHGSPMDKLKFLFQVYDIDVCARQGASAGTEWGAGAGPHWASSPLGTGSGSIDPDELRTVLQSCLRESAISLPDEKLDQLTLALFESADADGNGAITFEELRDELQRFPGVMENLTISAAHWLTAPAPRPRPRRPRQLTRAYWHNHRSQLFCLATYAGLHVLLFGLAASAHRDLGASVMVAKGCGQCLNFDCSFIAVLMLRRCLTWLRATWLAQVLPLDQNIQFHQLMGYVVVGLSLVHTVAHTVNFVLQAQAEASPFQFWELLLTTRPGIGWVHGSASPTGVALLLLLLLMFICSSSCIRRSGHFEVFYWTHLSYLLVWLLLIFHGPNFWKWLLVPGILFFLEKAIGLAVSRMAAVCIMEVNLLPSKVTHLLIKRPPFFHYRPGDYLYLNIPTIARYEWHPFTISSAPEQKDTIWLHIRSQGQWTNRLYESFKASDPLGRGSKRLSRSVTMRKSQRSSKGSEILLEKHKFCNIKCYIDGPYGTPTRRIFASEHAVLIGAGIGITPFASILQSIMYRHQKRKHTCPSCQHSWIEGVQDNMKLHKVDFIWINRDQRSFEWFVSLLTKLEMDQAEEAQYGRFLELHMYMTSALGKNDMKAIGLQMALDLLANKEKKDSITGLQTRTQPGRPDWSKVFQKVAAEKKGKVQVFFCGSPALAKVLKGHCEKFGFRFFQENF
- ASSAY PROTOCOL: NOX5-dependent H2O2 signal modulators, primary screen, NOX inhibitor project, cell-based, HEK293-NOX5, Amplex Red fluorescence (AID 1161)
- EXPERIMENTAL SETUP: HEK293-NOX5, ionomycin, 45 min, higher = more signal
Please go through the items and note down their z-score.
Answers are plain numbers.

{"COMPOUND": "C=C(COC)C(=O)CC[C@@H](OC(=O)c1cccnc1)c1ccc(OCCO)cc1", "MEASURED TARGET": "NADPH oxidase 5 (Homo sapiens) (UniProt Q96PH1)", "z-score": -2.85}
{"COMPOUND": "COCCOC(=O)N1C(=O)[C@@]2(c3cc(C#CC4=CCCCC4)ccc31)[C@H](c1ccccc1OCCO)N1[C@H](c3ccccc3)[C@H](c3ccccc3)OC(=O)[C@H]1[C@@H]2C(=O)Nc1nc2ccccc2s1", "MEASURED TARGET": "NADPH oxidase 5 (Homo sapiens) (UniProt Q96PH1)", "z-score": 1.41}

Consider the following items and state reported z-score for each.
1. O=C1O[C@H](c2ccccc2)[C@H](c2ccccc2)N2[C@H]1[C@@H](C(=O)O)[C@]1(C(=O)Nc3ccc(C#CC4=CCCCC4)cc31)[C@H]2c1ccc(O)cc1
2. CN1C(=O)C2C=CC(C(O)c3ccc(F)cc3)N(Nc3ccccc3)C2C1=O (stereo unspecified)

Reply:
1: -0.32; 2: -3.17

Consider the following items and state reported z-score for each.
1. O=C1C[C@@](C(=O)NCCN2CCOCC2)(c2ccc([N+](=O)[O-])cc2)[C@@H](c2ccc(CO)cc2I)N1C1CCCCC1
2. COCCOC(=O)N1C(=O)[C@@]2(c3cc(C#CC4=CCCCC4)ccc31)[C@H](C(N)=O)[C@H]1C(=O)O[C@H](c3ccccc3)[C@H](c3ccccc3)N1[C@@H]2c1ccccc1OCCO

Reply:
[-1.5, 1.42]

----------
Please go through the items and note down their composite z-score.
- System: Lefty1
- ASSAY PROTOCOL: Lefty1 binders on small-molecule microarrays, primary screen, biochemical, small-molecule microarray, 635/667 nm fluorescence (AID 1139)
- EXPERIMENTAL SETUP: small-molecule microarray binding, fluorescence 635/667; higher = more signal
Give bare numbers.

Some solved entries appear below for comparison.
{"MOLECULE": "O=C1O[C@H](c2ccccc2)[C@H](c2ccccc2)N2[C@H]1[C@@H](C(=O)O)[C@]1(C(=O)Nc3ccc(C#CC4=CCCCC4)cc31)[C@H]2c1ccc(O)cc1", "VAL": 0.841}
{"MOLECULE": "COCCCNC(=O)[C@@]1(Cc2ccccc2N=[N+]=[N-])N=C(c2ccc(OCCCO)cc2)O[C@H]1c1ccccc1", "VAL": 0.256}
{"MOLECULE": "CCOC(=O)C1CCCCN1 (centres undefined)", "VAL": 0.589}
{"MOLECULE": "O=C1O[C@H](c2ccccc2)[C@H](c2ccccc2)N2[C@H]1[C@@H](C(=O)N1CCN(c3ncccn3)CC1)[C@]1(C(=O)Nc3ccc(C#CC4(O)CCCCCC4)cc31)[C@H]2c1ccc(OCCO)cc1", "VAL": 1.38}
{"MOLECULE": "CN(C)CCCNC(=O)[C@@]1(c2ccc([N+](=O)[O-])cc2)CC(=O)N(CC23CC4CC(CC(C4)C2)C3)[C@@H]1c1ccc(CO)cc1I", "VAL": 1.5}
{"MOLECULE": "CC(=O)NCCCC[C@@H]1NC(=O)[C@@H]2C[C@H](C(=O)NCCCC[N+](C)(C)C)[C@H](c3ccc(O)cc3)N2C1=O", "VAL": 1.49}
{"MOLECULE": "[N-]=[N+]=Nc1ccccc1C[C@]1(C(N)=O)N=C(c2ccc(OCCCO)cc2)O[C@H]1c1ccccc1N=[N+]=[N-]", "VAL": -0.24}
{"MOLECULE": "Cc1ccc(S[C@]2(C(=O)NCC(F)(F)F)CC(=O)N(C3CCCCC3)[C@@H]2c2ccc(CO)cc2I)cc1", "VAL": 0.465}
{"MOLECULE": "CC(C)(C)OC(=O)CC[C@]1(C(=O)NCc2ccccc2)N=C(c2ccc(OCCCO)cc2)O[C@H]1c1ccccc1CN=[N+]=[N-]", "VAL": 1.33}
{"MOLECULE": "NCCCCCNC(=O)[C@@H]1C[C@@H]2C(=O)NCC(=O)N2[C@@H]1c1cccc(OCCO)c1", "VAL": 1.55}

Consider the following items and state reported composite z-score for each.
1. COc1ccccc1CN1C(=O)c2ccccc2[C@@]2(Cc3ccccc3N(CC(F)(F)F)C2=O)[C@@H]1c1ccc(CO)cc1
2. Cc1cc(C)c(C(O)C2C=CC3C(=O)N(c4ccccc4)C(=O)C3N2Nc2ccc(C(C)C)cc2)c(C)c1 (centres undefined)
3. Cc1cc(C)c(C(O)C2C=CC3C(=O)NC(=O)C3N2Nc2ccc(Cl)cc2Cl)c(C)c1 (centres undefined)
4. O=C(NCC(F)(F)F)[C@@H]1c2ccccc2C(=O)N(Cc2cc(F)cc(C(F)(F)F)c2)[C@H]1c1ccc(CO)cc1
5. COCCOC(=O)N1C(=O)[C@@]2(c3cc(C#Cc4ccc(OC)cc4)ccc31)[C@H](c1ccc(O)cc1)N1[C@H](c3ccccc3)[C@H](c3ccccc3)OC(=O)[C@H]1[C@@H]2C(=O)N1CCCCCCC1
6. Cc1ccccc1C(O)C1C=CC2C(=O)N(C)C(=O)C2N1N(c1ccccc1)c1ccccc1 (centres undefined)
7. COC(=O)c1c(CC[C@@H](CO)NC(=O)N2CCC[C@H]2Cn2cc(Cc3ccccc3)nn2)oc(C(C)=O)c1C(=O)OC
8. COCCOC(=O)N1C(=O)[C@@]2(c3cc(C#Cc4ccc(OC)cc4)ccc31)[C@H](C(=O)Nc1nc3ccccc3s1)[C@H]1C(=O)O[C@H](c3ccccc3)[C@H](c3ccccc3)N1[C@@H]2c1ccc(O)cc1

Reply:
[0.292, -0.138, -0.0986, -1.24, 0.391, -0.543, 0.824, 1.18]

Consider the following items and state reported composite z-score for each.
1. C=C[C@@H](OC)[C@H](OC(=O)Nc1ccc(SC)cc1)c1ccc(O)c(F)c1
2. [N-]=[N+]=NCc1ccccc1[C@@H]1OC(c2ccc(OCCCO)cc2)=N[C@]1(CCS(=O)(=O)c1ccccc1)C(=O)NCC(O)CO (some centres undefined)

Reply:
1. 0.885
2. 0.171

Consider the following items and state reported composite z-score for each.
1. CCCNC(=O)[C@@H]1c2ccccc2C(=O)N(C(C)C)[C@H]1c1ccc(CO)cc1
2. COc1ccc([Si](C)(C)[C@@H]2[C@@H](CC(=O)N(CCO)Cc3ccccc3)O[C@]3(C(=O)N(c4ccccc4)c4ccccc43)[C@H]2C)cc1

Reply:
-0.371
1.29

Consider the following items and state reported composite z-score for each.
1. C=CCN1C(=O)[C@@]2(CCS(=O)(=O)c3ccccc3)N=C(c3ccc(OCCCO)cc3)O[C@H]2c2ccccc21
2. COCCCNC(=O)[C@@]1(Sc2ccc(C)cc2)CC(=O)N(C2CCCCC2)[C@@H]1c1ccc(CO)cc1

Reply:
0.952
-1.63
